The reported measurements were obtained from patent US20070149525A1.

Assay: In vitro permeability across MDCK cell monolayer
Type: in vitro ADME, Canine
Settings: dog, MDCK, test compound 5 μM, 2 h at 37° C., apical to basolateral, read-out: Permeability Forward A > B

[
  {
    "COMPOUND": "CC(=O)NC(Cc1cc(F)cc(F)c1)C(O)CNC1(c2cncc(CC(C)(C)C)c2)CC1 (stereo not shown)",
    "Papp A→B at 2 h, 5 μM [×10⁻⁶ cm/s]": 13.5
  },
  {
    "COMPOUND": "C=C(c1cccc(C2(NCC(O)C(Cc3cc(F)cc(F)c3)NC(C)=O)CC2)c1)C(F)(F)F (stereo not shown)",
    "Papp A→B at 2 h, 5 μM [×10⁻⁶ cm/s]": 10.3
  },
  {
    "COMPOUND": "CC(=O)NC(Cc1cc(F)cc(F)c1)C(O)CNC1(c2cccc(-n3cccn3)c2)CC1C (stereo not shown)",
    "Papp A→B at 2 h, 5 μM [×10⁻⁶ cm/s]": 11.1
  },
  {
    "COMPOUND": "CC(=O)NC(Cc1cc(F)cc(F)c1)C(O)CNC1(c2cccc(N3CCOCC3)c2)CC1 (stereo not shown)",
    "Papp A→B at 2 h, 5 μM [×10⁻⁶ cm/s]": 12.1
  },
  {
    "COMPOUND": "CC(=O)NC(Cc1cc(F)cc(F)c1)C(O)CNC1(n2cccn2)CC1Cc1ccccc1 (single isomer, unassigned) [23.30 Diastereomer A]",
    "Papp A→B at 2 h, 5 μM [×10⁻⁶ cm/s]": 8.48
  },
  {
    "COMPOUND": "COCCOCC(=O)NC(Cc1cc(F)cc(F)c1)C(O)CNC1(c2cccc(-n3cccn3)c2)CC1 (stereo not shown)",
    "Papp A→B at 2 h, 5 μM [×10⁻⁶ cm/s]": 13.3
  },
  {
    "COMPOUND": "CC(=O)NC(Cc1cc(F)cc(F)c1)C(O)CNC1(c2cn(-c3ccsc3)nn2)CC1 (stereo not shown)",
    "Papp A→B at 2 h, 5 μM [×10⁻⁶ cm/s]": 12.1
  }
]
